measurement_target: human VPAC2 (Homo sapiens, UniProt P41587)
Construct: expressed in transfected cells
Sequence (P41587 24-438): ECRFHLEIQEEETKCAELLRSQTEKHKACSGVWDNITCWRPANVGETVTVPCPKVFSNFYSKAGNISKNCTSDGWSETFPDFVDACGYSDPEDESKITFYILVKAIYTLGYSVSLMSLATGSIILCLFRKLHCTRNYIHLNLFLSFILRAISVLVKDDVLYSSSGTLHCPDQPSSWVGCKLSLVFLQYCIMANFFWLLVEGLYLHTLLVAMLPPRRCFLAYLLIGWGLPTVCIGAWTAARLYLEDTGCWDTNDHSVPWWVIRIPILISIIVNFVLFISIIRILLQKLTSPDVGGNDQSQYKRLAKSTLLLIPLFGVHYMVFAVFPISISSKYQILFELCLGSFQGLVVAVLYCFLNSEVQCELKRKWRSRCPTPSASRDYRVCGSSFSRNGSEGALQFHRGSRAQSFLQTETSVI
procedure_details: Alpha screen cAMP in vitro potency, human VPAC2 receptor
Assay type: cell-based
cond: cAMP generation; single result from two analyses performed in a single run; read-out: Human VPAC2 Receptor: Alpha Screen EC50
pEC50: −log10 of the molar value. Where no end group is shown, it is not given here. [ ]: non-standard residue; d: D form. The star is where a group is joined. Hexanoyl = CCCCCC(=O)*; Aib = CC(C)(N)C(=O)O
measure: pEC50

substance="Hexanoyl-HSDAVFTDNYTRLRKQVAAKKYLQS[Aib]KNKRYGGPSSGAPPPS [Agonist P188]" measurement_target="human VPAC2 (Homo sapiens, UniProt P41587)" measure=pEC50 result_number=9.49
substance="Hexanoyl-HSDAVFTDNYTRLRKQVALKKYLQSIKNKRYGGPSSGAPPPS [Agonist P155]" measurement_target="human VPAC2 (Homo sapiens, UniProt P41587)" measure=pEC50 result_number=9.62
substance="Hexanoyl-HSDAVFTDNYTRLQKQVAAKQYLQSIKNKRYGGPSSGAPPPS [Agonist P253]" measurement_target="human VPAC2 (Homo sapiens, UniProt P41587)" measure=pEC50 result_number=9.34
substance="Hexanoyl-HSDAVFTDNYTRLRAQVAAKKYLQSIKNKRYGGPSSGAPPPS [Agonist P139]" measurement_target="human VPAC2 (Homo sapiens, UniProt P41587)" measure=pEC50 result_number=9.70
substance="Hexanoyl-HSDAVFTDNYTRLLAKVAAKKYLQSIKNKRYGGPSSGAPPPS [Agonist P135]" measurement_target="human VPAC2 (Homo sapiens, UniProt P41587)" measure=pEC50 result_number=9.74
substance="Hexanoyl-HSDAVFTDNYTRLRKQVAAKFYLQSIKNKRYGGPSSGAPPPS [Agonist P186]" measurement_target="human VPAC2 (Homo sapiens, UniProt P41587)" measure=pEC50 result_number=9.82
substance="Hexanoyl-HSDAVFTDQYTRLLAKLALQKYLQSIKQKRYGGPSSGAPPPS [Agonist P192]" measurement_target="human VPAC2 (Homo sapiens, UniProt P41587)" measure=pEC50 result_number=9.74
substance="Hexanoyl-HSDAVFTDNYTRLR[Aib]QLAAK[Aib]YLQSIKNKRYGGPSSGAPPPS [Agonist P284]" measurement_target="human VPAC2 (Homo sapiens, UniProt P41587)" measure=pEC50 result_number=9.74
